Test system: Escherichia coli TOP10;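 also: peptides expressed intracellularly from a pBAD plasmid library in pooled LB shake-flask culture, induced with 0.3% L-arabinose, DNA abundance read by NGS, three biological replicates, DESeq2 with apeglm shrinkage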
TEST: shrunken log2 fold change of peptide-encoding DNA abundance (4.5 h post-induction vs induction); higher = less antimicrobial activity (less host growth inhibition)
PARTICULARS: time post-induction: 4.5 h; library: site-saturation at positions 5, 18, 19, 20
MEASUREMENT TYPE: shrunken log2 fold change
Simply state the number, no unit and no words.

Bench note, Escherichia coli TOP10: RRIRHRPPRLPRPRPRPNIKPRP , shrunken log2 fold change reads -0.69

Considering RRIRHRPPRLPRPRPRPMQEPRP , its shrunken log2 fold change with Escherichia coli TOP10 was recorded as -0.01

Tested on Escherichia coli TOP10: RRIRWRPPRLPRPRPRPCDKPRP . Observed shrunken log2 fold change: -0.217

Result for RRIRTRPPRLPRPRPRPIAFPRP , tested on Escherichia coli TOP10, shrunken log2 fold change: -0.0138

Noted shrunken log2 fold change for RRIRWRPPRLPRPRPRPRTYPRP , tested on Escherichia coli TOP10: -0.331

Item RRIRYRPPRLPRPRPRPQCLPRP ; assay system Escherichia coli TOP10; shrunken log2 fold change reported as 0.0613

shrunken log2 fold change value, target or system Escherichia coli TOP10, for RRIRARPPRLPRPRPRPIDIPRP : 0.0327

Observed shrunken log2 fold change on Escherichia coli TOP10, entry RRIRQRPPRLPRPRPRPEKSPRP , equals 0.287

// sequence RRIRHRPPRLPRPRPRPLGIPRP , assay Escherichia coli TOP10, shrunken log2 fold change value: -0.148

Fill in: Escherichia coli TOP10 shrunken log2 fold change for RRIRERPPRLPRPRPRPYYAPRP = -0.72

Case RRIRVRPPRLPRPRPRPYKSPRP , Escherichia coli TOP10, shrunken log2 fold change recorded as -0.492

Field shrunken log2 fold change (system: Escherichia coli TOP10) for entry RRIRPRPPRLPRPRPRPQISPRP = -0.221

Entry RRIRERPPRLPRPRPRPQFMPRP , tested on Escherichia coli TOP10, has a reported shrunken log2 fold change of 0.0848

Case RRIRCRPPRLPRPRPRPFSLPRP , Escherichia coli TOP10, shrunken log2 fold change recorded as -0.239

The observed shrunken log2 fold change for RRIRRRPPRLPRPRPRPEIMPRP when tested with Escherichia coli TOP10 stands at 0.209

Bench note, Escherichia coli TOP10: RRIRLRPPRLPRPRPRPWFWPRP , shrunken log2 fold change reads -0.0455

Query RRIRHRPPRLPRPRPRPMTRPRP on Escherichia coli TOP10; shrunken log2 fold change returned: -0.0247

Sample RRIRWRPPRLPRPRPRPGMKPRP , system: Escherichia coli TOP10. Its shrunken log2 fold change is 0.0023

The sequence RRIRMRPPRLPRPRPRPMSGPRP , when measured on Escherichia coli TOP10, yielded shrunken log2 fold change of 0.858

Field shrunken log2 fold change (Escherichia coli TOP10), entry RRIRERPPRLPRPRPRPFFYPRP : -0.258

# RRIRSRPPRLPRPRPRPDSYPRP with Escherichia coli TOP10: shrunken log2 fold change is -0.221

Simply: RRIRMRPPRLPRPRPRPGRSPRP , Escherichia coli TOP10, shrunken log2 fold change = 0.303

The sequence RRIRSRPPRLPRPRPRPDIIPRP on Escherichia coli TOP10: shrunken log2 fold change was -0.16

So the reported shrunken log2 fold change for RRIRERPPRLPRPRPRPHCQPRP , on Escherichia coli TOP10, turned out to be 0.00361

The reported Escherichia coli TOP10 shrunken log2 fold change of RRIRIRPPRLPRPRPRPGTDPRP is -0.114

Query RRIRERPPRLPRPRPRPFCVPRP on Escherichia coli TOP10; shrunken log2 fold change returned: -0.026

Item RRIRFRPPRLPRPRPRPYCPPRP was tested on Escherichia coli TOP10; the reported shrunken log2 fold change is -0.721

Result for RRIRNRPPRLPRPRPRPWYDPRP , tested on Escherichia coli TOP10, shrunken log2 fold change: -0.0695

// returns shrunken log2 fold change for RRIRRRPPRLPRPRPRPTECPRP with Escherichia coli TOP10; value = 0.0801

Tested system Escherichia coli TOP10; shrunken log2 fold change recorded for RRIRLRPPRLPRPRPRPRQDPRP was 0.152

Considering RRIRIRPPRLPRPRPRPELFPRP , its shrunken log2 fold change with Escherichia coli TOP10 was recorded as 0.23

Observed shrunken log2 fold change on Escherichia coli TOP10, entry RRIRDRPPRLPRPRPRPKWEPRP , equals 0.104

Record RRIRDRPPRLPRPRPRPTQWPRP / Escherichia coli TOP10, shrunken log2 fold change recorded as 0.0594

The observed shrunken log2 fold change for RRIRRRPPRLPRPRPRPKKRPRP when tested with Escherichia coli TOP10 stands at 0.976

So the reported shrunken log2 fold change for RRIRYRPPRLPRPRPRPSMCPRP , on Escherichia coli TOP10, turned out to be -0.24

Measured shrunken log2 fold change for this entry RRIRIRPPRLPRPRPRPIPNPRP on Escherichia coli TOP10: -0.0731

GET /values?item= RRIRWRPPRLPRPRPRPWFFPRP &system= Escherichia coli TOP10 returns shrunken log2 fold change: -0.0638

Known value: Escherichia coli TOP10 shrunken log2 fold change of the sequence RRIRPRPPRLPRPRPRPEVAPRP equals 0.212

Tested system Escherichia coli TOP10; shrunken log2 fold change recorded for RRIRLRPPRLPRPRPRPKELPRP was 0.0165

Reported shrunken log2 fold change (Escherichia coli TOP10) for entry RRIRTRPPRLPRPRPRPHPGPRP is 0.106

Assay Escherichia coli TOP10, sample RRIRQRPPRLPRPRPRPTRMPRP , shrunken log2 fold change read: 0.185

Per the reported Escherichia coli TOP10 data, RRIRPRPPRLPRPRPRPKLYPRP has shrunken log2 fold change of 0.0311

Entry RRIRARPPRLPRPRPRPLHWPRP under Escherichia coli TOP10 had shrunken log2 fold change of 0.387

Item RRIRARPPRLPRPRPRPQLPPRP was tested on Escherichia coli TOP10; the reported shrunken log2 fold change is 0.327

Hey, Escherichia coli TOP10 data for RRIRSRPPRLPRPRPRPANTPRP : shrunken log2 fold change came out at -0.268

Item RRIRHRPPRLPRPRPRPFDAPRP ; assay system Escherichia coli TOP10; shrunken log2 fold change reported as 0.00493

// returns shrunken log2 fold change for RRIRFRPPRLPRPRPRPYDFPRP with Escherichia coli TOP10; value = -0.0848

Simply: RRIRKRPPRLPRPRPRPKCCPRP , Escherichia coli TOP10, shrunken log2 fold change = 0.0349

The sequence RRIRRRPPRLPRPRPRPLCTPRP , tested on Escherichia coli TOP10, showed shrunken log2 fold change of 0.354

Entry RRIRARPPRLPRPRPRPLYGPRP ; assay system Escherichia coli TOP10; shrunken log2 fold change recorded at -0.203

Assay Escherichia coli TOP10, sample RRIRDRPPRLPRPRPRPRHYPRP , shrunken log2 fold change read: 0.0264

For RRIRGRPPRLPRPRPRPMDCPRP on Escherichia coli TOP10, measured shrunken log2 fold change was 0.357

Assay Escherichia coli TOP10, sample RRIRSRPPRLPRPRPRPKRFPRP , shrunken log2 fold change read: 0.0952

Assay Escherichia coli TOP10, sample RRIRWRPPRLPRPRPRPYVEPRP , shrunken log2 fold change read: -0.446

Result for RRIRQRPPRLPRPRPRPYDVPRP , tested on Escherichia coli TOP10, shrunken log2 fold change: -0.00663

The sequence RRIRVRPPRLPRPRPRPQESPRP , when measured on Escherichia coli TOP10, yielded shrunken log2 fold change of -0.0491

With Escherichia coli TOP10 as the test system, RRIRPRPPRLPRPRPRPYYMPRP showed shrunken log2 fold change of -0.864

Short answer on Escherichia coli TOP10 for RRIRHRPPRLPRPRPRPQHPPRP , shrunken log2 fold change: -0.396

Assay Escherichia coli TOP10, sample RRIRYRPPRLPRPRPRPKSAPRP , shrunken log2 fold change read: 0.0745

Item RRIRFRPPRLPRPRPRPCMNPRP was tested on Escherichia coli TOP10; the reported shrunken log2 fold change is 0.0346

I looked up RRIRCRPPRLPRPRPRPSPHPRP and its shrunken log2 fold change for Escherichia coli TOP10 was -0.144

# value of shrunken log2 fold change, Escherichia coli TOP10, item RRIRERPPRLPRPRPRPRHHPRP = -0.0796

Considering RRIRQRPPRLPRPRPRPMWRPRP , its shrunken log2 fold change with Escherichia coli TOP10 was recorded as 0.279
